# PROTOCOL SUMMARY: Cytotoxicity against human MT2 cells by MTT assay
# Type: cell-based
CC50 values for the molecules below.

Example cases with answers are listed next.
STRUCTURE | QUANTITY MEASURED | EXPERIMENTAL RESULT
COc1ccc(S(=O)(=O)N(C[C@@H]2CCC(=O)N2)C[C@@H](O)[C@H](Cc2ccccc2)NC(=O)O[C@@H]2C[C@@H]3CCO[C@@H]3C2)cc1 | CC50 | > 100 µM
CC(C)(C)NC(=O)[C@@H]1C[C@@H]2CCCC[C@@H]2CN1C[C@@H](O)[C@H](Cc1ccccc1)NC(=O)[C@H](CC(N)=O)NC(=O)c1ccc2ccccc2n1 | CC50 | 9.9 µM

Note: attention shifts to another entry.
Ask: Look up and report measured CC50 for this entry: `CC(C)CN(C[C@@H](O)[C@H](Cc1ccccc1)NC(=O)O[C@H]1CCOC1)S(=O)(=O)c1ccc(N)cc1`
Result: > 100 µM
